target: T1, rhFGFR2IIIb-Fc (recombinant human FGFR2IIIb-Fc) (human, UniProt P21802-3 22-378, limits assumed); assay: ELISA, coated rhFGFR2IIIb-Fc, anti-Fab HRP
T1 construct: Coated on the ELISA plate at 2 ug/mL; not shown: Fc part
T1 sequence (P21802 other isoform, or with tags, fused parts or gaps limits assumed): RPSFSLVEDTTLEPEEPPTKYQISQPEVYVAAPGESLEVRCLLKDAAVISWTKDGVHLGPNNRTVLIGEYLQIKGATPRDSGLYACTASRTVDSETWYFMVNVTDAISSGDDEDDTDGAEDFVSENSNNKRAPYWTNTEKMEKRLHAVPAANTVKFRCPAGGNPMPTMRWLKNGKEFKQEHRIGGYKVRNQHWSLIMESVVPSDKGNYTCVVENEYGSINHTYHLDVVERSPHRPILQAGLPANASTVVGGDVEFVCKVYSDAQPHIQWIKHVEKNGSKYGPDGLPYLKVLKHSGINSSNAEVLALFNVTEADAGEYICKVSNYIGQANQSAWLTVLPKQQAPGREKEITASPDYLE
Experimental endpoint: pEC50
Please express pEC50 as -log10 of the molar concentration.

[
  {
    "Binder": "FWB1922 (antibody, V domains shown) VH: QVQLVQSGAEVKKPGSSVKVSCKASGYIFTSYNVHWVRQAPGQGLEWIGSIYPDNGDSTYNQNYRGRATITADKSTSTAYMELSSLRSEDTAVYYCARGDFAYWGQGTLVTVSS VL: DIQMTQSPSSLSASVGDRVTITCKGSNGISNDIAWYQQKPGKAPKLLIYSASYRYSGVPSRFSGSGSGTDFTFTISSLQPEDIATYYCQQHSTTPYTFGQGTKLEIK",
    "pEC50": 9.18
  },
  {
    "Binder": "FWB1904 (antibody, V domains shown) VH: QVQLVQSGAEVKKPGSSVKVSCKASGYIFTSYNVHWVRQAPGQGLEWIGSIYPDNGDTSYNQNFRGRATITADKSTSTAYMELSSLRSEDTAVYYCARGDFAYWGQGTLVTVSS VL: DIQMTQSPSSLSASVGDRVTITCKASNGISNDIAWYQQKPGKAPKLLIYSASYRYSGVPSRFSGSGSGTDFTFTISSLQPEDIATYYCQQHSTTPYTFGQGTKLEIK",
    "pEC50": 9.45
  },
  {
    "Binder": "FWB1925 (antibody, V domains shown) VH: QVQLVQSGAEVKKPGSSVKVSCKASGYIFTSYNVHWVRQAPGQGLEWIGSIYPDNGDSTYDEDYRGRATITADKSTSTAYMELSSLRSEDTAVYYCARGDFAYWGQGTLVTVSS VL: DIQMTQSPSSLSASVGDRVTITCKGSNGISNDIAWYQQKPGKAPKLLIYSASYRYSGVPSRFSGSGSGTDFTFTISSLQPEDIATYYCQQHSTTPYTFGQGTKLEIK",
    "pEC50": 9.19
  }
]

Moving on to the next binder.
Query: // Input: FWB1910 (antibody, V domains shown) VH: QVQLVQSGAEVKKPGSSVKVSCKASGYIFTTYNVHWVRQAPGQGLEWIGSIYPDNGDTSYDEDFKGRATITADKSTSTAYMELSSLRSEDTAVYYCARGDFAYWGQGTLVTVSS VL: DIQMTQSPSSLSASVGDRVTITCKVSQGVSNDAVWYQQKPGKAPKLLIYSASYRYTGVPSRFSGSGSGTDFTFTISSLQPEDIATYYCQQHSTTPYTFGQGTKLEIK . Output its pEC50 only.
Response: 9.55
